Every entry's value here was drawn from patent US20230322908A1.

target of assay: T1, TP-51 peptide (aa 352-414 of SEQ ID NO:1) (human)
T1 construct: Synthetic peptide (Pepscan)
T1 peptide: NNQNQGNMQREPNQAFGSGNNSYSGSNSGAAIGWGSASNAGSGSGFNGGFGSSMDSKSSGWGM
test protocol: SPR 8K, mAb captured, TP-51 injected
Field: Kd. Provide a value for each of the binders that follow.
Give bare numbers, in nM.

[
  {
    "binder": "hACI-7069-633B12-Ab1_H20L19 (IgG4) (antibody, V domains shown) VH: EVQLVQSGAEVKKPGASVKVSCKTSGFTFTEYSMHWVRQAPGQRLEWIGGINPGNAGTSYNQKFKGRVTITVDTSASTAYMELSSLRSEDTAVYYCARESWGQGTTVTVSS VL: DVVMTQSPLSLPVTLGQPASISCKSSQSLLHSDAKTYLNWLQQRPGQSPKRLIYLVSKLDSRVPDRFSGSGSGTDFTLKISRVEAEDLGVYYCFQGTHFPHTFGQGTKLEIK",
    "unit of measure": "nM",
    "Kd": 2.9
  },
  {
    "binder": "hACI-7069-633B12-Ab1_H20L14 (IgG4) (antibody, V domains shown) VH: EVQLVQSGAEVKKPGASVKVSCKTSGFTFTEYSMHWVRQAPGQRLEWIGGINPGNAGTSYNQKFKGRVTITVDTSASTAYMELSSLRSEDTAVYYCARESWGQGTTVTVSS VL: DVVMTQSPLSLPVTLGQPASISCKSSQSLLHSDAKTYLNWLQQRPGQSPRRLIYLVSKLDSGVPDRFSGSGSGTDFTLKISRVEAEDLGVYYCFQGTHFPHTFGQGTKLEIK",
    "unit of measure": "nM",
    "Kd": 11.1
  },
  {
    "binder": "hACI-7069-633B12-Ab1_H15L14 (IgG4) (antibody, V domains shown) VH: QVQLVQSGAEVKKPGASVKVSCKASGFTFTEYSMHWVRQAPGQRLEWMGGINPGNAGTSYNQKFKGRVTITVDTSASTAYMELSSLRSEDTAVYYCARESWGQGTTVTVSS VL: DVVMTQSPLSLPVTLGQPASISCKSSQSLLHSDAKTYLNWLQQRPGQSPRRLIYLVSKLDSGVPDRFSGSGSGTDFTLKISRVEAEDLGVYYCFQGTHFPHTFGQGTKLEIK",
    "unit of measure": "nM",
    "Kd": 8.3
  },
  {
    "binder": "hACI-7069-633B12-Ab1_H17L14 (IgG4) (antibody, V domains shown) VH: QVQLVQSGAEVKKPGASVKVSCKASGFTFTEYSMHWVKQAPGQRLEWMGGINPGNAGTSYNQKFKGRVTITVDTSASTAYMELSSLRSEDTAVYYCARESWGQGTTVTVSS VL: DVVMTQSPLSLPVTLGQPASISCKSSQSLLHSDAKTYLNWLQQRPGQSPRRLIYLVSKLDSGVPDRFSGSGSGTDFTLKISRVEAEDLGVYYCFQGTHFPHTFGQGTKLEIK",
    "unit of measure": "nM",
    "Kd": 9
  }
]

Next binder, Kd to be filled in.
input: Param item = hACI-7069-633B12-Ab1_H19L14 (IgG4) (antibody, V domains shown) VH: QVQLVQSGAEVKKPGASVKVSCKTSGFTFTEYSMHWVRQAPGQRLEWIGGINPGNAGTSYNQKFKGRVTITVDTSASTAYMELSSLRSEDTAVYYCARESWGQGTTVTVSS VL: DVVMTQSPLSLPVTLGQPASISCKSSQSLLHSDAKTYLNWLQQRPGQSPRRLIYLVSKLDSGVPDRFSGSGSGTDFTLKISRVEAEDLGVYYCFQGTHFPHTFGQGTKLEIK ; retrieve measured Kd.
output: 9.4
